# ASSAY COMMENT: Multiple ascending dose study: plasma pharmacokinetics
# Type: in vivo
# ASSAY CONTEXT: human, po, 50 mg, Day 14, 50 mg QD oral, read-out: AUC(0-inf) Mean (SD)
OBSERVED PROPERTY: AUC(0-inf) (ng·h/mL)
Numbers only, in ng·h/mL.

Query (compound): COc1ncc(C)c(-c2ccc3c(c2)[nH]c(=O)c2cnn([C@H]4CCOC4)c23)c1C ; field requested: AUC(0-inf) 40700

----------
# ASSAY COMMENT: Single dose clinical study Part B: CSF Compound A pharmacokinetics
# Assay type: in vivo
# ASSAY CONTEXT: human; CSF, healthy adults Part B, single oral 100 mg, fasted; read-out: CSF tmax Median
OBSERVED PROPERTY: Tmax (h)
One number for each entry, in h.

Return reported Tmax; argument: COc1ncc(C)c(-c2ccc3c(c2)[nH]c(=O)c2cnn([C@H]4CCOC4)c23)c1C 6.87

Origin of the recorded values: patent US20220378706A1
